Could you please report measured kon for the items listed next?
Biological target: T1, human IL-33 (R&D Systems, #3625-IL-010/CF) (human, UniProt O95760 112-270)
T1 construct: also called hIL-33; huIL-33
T1 sequence (looked up): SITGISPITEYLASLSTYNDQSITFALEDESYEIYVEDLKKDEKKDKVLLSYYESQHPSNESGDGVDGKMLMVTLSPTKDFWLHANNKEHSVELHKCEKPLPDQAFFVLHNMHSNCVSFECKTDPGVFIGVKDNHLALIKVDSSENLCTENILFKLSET
Assay: SPR Biacore T200, 25 C
Numbers only, in M⁻¹ s⁻¹.

Here's what some known entries look like.
{"binder": "H4H9633P (antibody, IgG4, V domains shown, also called RG5) VH: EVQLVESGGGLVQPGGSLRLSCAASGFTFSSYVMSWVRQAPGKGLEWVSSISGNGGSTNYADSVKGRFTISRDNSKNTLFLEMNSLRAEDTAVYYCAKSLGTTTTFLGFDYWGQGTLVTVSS VL: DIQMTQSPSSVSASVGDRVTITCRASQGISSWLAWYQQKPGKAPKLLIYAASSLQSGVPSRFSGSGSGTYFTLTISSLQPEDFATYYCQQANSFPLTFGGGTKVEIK", "test readout": "kon", "numeric value": 491000}
{"binder": "H1M9559N (antibody, IgG1, V domains shown, also called RG1) VH: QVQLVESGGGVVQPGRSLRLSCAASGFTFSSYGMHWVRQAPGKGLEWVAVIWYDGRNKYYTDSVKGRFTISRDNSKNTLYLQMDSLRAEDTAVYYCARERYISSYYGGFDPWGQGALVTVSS VL: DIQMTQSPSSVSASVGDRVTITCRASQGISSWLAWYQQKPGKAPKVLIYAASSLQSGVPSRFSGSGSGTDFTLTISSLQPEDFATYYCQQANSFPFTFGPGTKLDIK", "test readout": "kon", "numeric value": 226000}

Batch of 2 binders: report kon for each.
1. H4H9629P (antibody, IgG4, V domains shown, also called RG4) VH: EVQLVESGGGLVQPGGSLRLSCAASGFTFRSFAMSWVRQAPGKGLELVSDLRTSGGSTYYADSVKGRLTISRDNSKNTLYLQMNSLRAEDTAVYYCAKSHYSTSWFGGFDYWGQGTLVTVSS VL: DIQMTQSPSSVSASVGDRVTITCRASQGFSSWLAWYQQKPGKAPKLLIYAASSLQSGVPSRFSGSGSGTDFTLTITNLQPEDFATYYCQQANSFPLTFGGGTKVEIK
2. 10C12.38.H6.87Y.58I IgG4 (antibody, V domains shown, also called anti-IL33 10C12.38.H6.87Y.58I IgG4) VH: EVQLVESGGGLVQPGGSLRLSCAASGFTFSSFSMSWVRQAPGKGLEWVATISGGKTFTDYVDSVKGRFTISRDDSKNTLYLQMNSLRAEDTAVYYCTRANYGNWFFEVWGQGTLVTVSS VL: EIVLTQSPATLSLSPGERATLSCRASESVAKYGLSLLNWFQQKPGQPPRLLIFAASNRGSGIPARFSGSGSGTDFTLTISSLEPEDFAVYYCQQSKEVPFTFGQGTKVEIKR

Response line:
["1.13e+06", "4.6e+06"]
